system: 935938-334-R-J1-PDC complex spheroid viability; assay: Anticancer human tumor 935938-334-R-J1-PDC patient-derived small intestine adenocarcinoma cell line growth inhibition [POLQ]; settings: second compound 10 µM; first compound 1 µM; stronger effect = lower value;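 further: spheroids exposed to drugs for seven days before viability read; 100% = DMSO vehicle control wells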
recorded.metric: viability, T/C (%)
The answer is to be given in %; state only the numeric part.

For orientation, consider the following solved cases.
Look up and report measured viability, T/C for this entry: COc1cccc(OCCCN)c1-c1cc(Nc2cnc(C#N)cn2)n[nH]1 + Cc1cccc(N(C)C(=O)C2C(O)CCN2c2nc(C)cc(C(F)(F)F)c2C#N)c1 9.17

Look up and report measured viability, T/C for this entry: COc1cccc(OCCCN)c1-c1cc(Nc2cnc(C#N)cn2)n[nH]1 + Nc1ccc(C#CCN(C(=O)Cc2ncc(C(F)(F)F)cc2C(F)(F)F)c2ccc(F)cc2)nn1 12.5

Look up and report measured viability, T/C for this entry: C=CCn1c(=O)c2cnc(Nc3ccc(N4CCN(C)CC4)cc3)nc2n1-c1cccc(C(C)(C)O)n1 + Nc1ccc(C#CCN(C(=O)Cc2ncc(C(F)(F)F)cc2C(F)(F)F)c2ccc(F)cc2)nn1 25.2

Look up and report measured viability, T/C for this entry: O=C(Nc1ccc(O)c(NS(=O)(=O)c2ccc(F)cc2)c1)c1ccc(-c2ccccc2)cc1 + Nc1ccc(C#CCN(C(=O)Cc2ncc(C(F)(F)F)cc2C(F)(F)F)c2ccc(F)cc2)nn1 94.5

Would you kindly look at the next entry?
Look up and report measured viability, T/C for this entry: CC(C)n1c(=O)n(C)c2cnc3cc(F)c(-c4ccc(OCCCN5CCCCC5)nc4)cc3c21 + Nc1ccc(C#CCN(C(=O)Cc2ncc(C(F)(F)F)cc2C(F)(F)F)c2ccc(F)cc2)nn1 107

meta.source: PubChem BioAssay AID1963829
